- Test system: human red blood cells
- method.notes: Red blood cell lysis assay
- Type: cell-based
- test.parameters: Erythrocyte, 24hs
pEC50: −log10 of the molar value.
assay.readout: pEC50

Lookup: # pEC50 lookup, item Cc1ccc2c(c1)nc(-c1ccc(N(C)C)cc1)n2CCc1ccccc1 [compound 696]
Found: < 4.00

* * *

- method.notes: Cytotoxicity in murine macrophages (MTT)
- Assay type: cell-based
- test.parameters: mouse, J774.1 murine macrophages; Fig. 2 toxicology summary
- Method: TZM-bl cells, U87-CD4-CCR5, murine macrophages (J774.1), and THP-1 monocytes (ATCC®TIB-202™) were grown following ATCC recommendations. […] After removing the medium, formazan crystals were dissolved in 180 µL of DMSO and 20µL of MTT buffer (0.1 M glycine, 0.1 M NaCl, 0.5 mM EDTA, pH 10.5), and the absorbance at 560 nm was measured. […]
assay.readout: EC50

Would you please look over these solved cases?
Lookup: # EC50 lookup, item C=CCn1c(C(=O)O)cs/c1=N\N=C\c1ccc(/C=N/N=c2\scc(C(=O)O)n2CC=C)cc1
Found: > 50 µM

Lookup: # EC50 lookup, item CC(/C=N/N1CCSCC1)=C\c1ccco1
Found: 50 µM

Lookup: # EC50 lookup, item C=CCn1c(-c2ccc3ccccc3c2)cs\c1=N/N=C/C=C/c1ccco1
Found: 50 µM

Lookup: # EC50 lookup, item C=CCn1c(C(=O)N2CCN(C/C=C/c3ccccc3)CC2)cs/c1=N/N=C\C=C\c1ccco1
Found: 40 µM

Next item in the queue.
Lookup: # EC50 lookup, item CCOC(=O)c1n(Cc2ccc(N(C)C)cc2)c2ccc([N+](=O)[O-])cc2[n+]1[O-]
Found: < 50 µM

The measurements presented in this section are drawn from paper PMC9241302.
